Just for reference, the supplement of paper PMC12764529 is where these values come from.

# testSummary: folding stability dG unfold from trypsin proteolysis; higher = more stable
measurementType: folding stability dG unfold (kcal/mol)
Please reply with the bare figure in kcal/mol and do not write the unit itself.

Solved entries:
1. SADGKVKVVVNLRITVTPLSPDGTPQPLPAASIPLVFEGDANDPEAVEQAVRDVLDALAPLFPDAEIVVDSA [r9_1112_TrMRF]    1.23
2. SAGGSAGGDKNAKPQPIMIAIEIYNPNGRKQEHTFPFESLDDAKEFIEDWLPPGYQVKVDIYPVSAGGSAGG [r6_290_TrROS]    0.322
3. SGFTVEVEVEYYPETGVLEVTVTTDGSSEQLIRDVADFIKEAGLDFVIESVEVEESGEVTTITLKLYVPPSA [r9_164_TrMRF]    3.03
4. SAGGSAGGSAGGEKIVLKVKPGDTVEVNGKTIKVPPGALITFDKKTKKLTIEPLSPEDLSAGGSAGGSAGGS [r10_353_TrROS_Hall]    0.954

Fill in reported folding stability dG unfold for this entry: SAGGSAGGSAGSMSLPVTELVVESVDPLEGVLVVKVKGTLPDGSEVELTLEFKPDEPLELSAGGSAGGSAGG [r11_211_JUSTAS]
0.992

Fill in reported folding stability dG unfold for this entry: SAGGSAGGSGGMMPVTLTITPVNPPGASTSSTTIPVNFTSPEEAAAAKEKIAAELPSNATVTGSAGGSAGGS [r20_211_JUSTAS]
0.442

Fill in reported folding stability dG unfold for this entry: SAGGMKLVVTKVGEDDNTEYYLITDPGSAEAIREAIKKLVPKDLPYKVTVLSYDPATGTYTVLVEVKRSAGG [r13_491_JUSTAS]
2.91

---

# testSummary: folding stability dG unfold from chymotrypsin proteolysis; higher = more stable
Entries annotated with measured folding stability dG unfold

1) SAGGSAGGSAGGKKTITVPKGAVVRITYKNGEKKEVKAGETITIEDLPEDVKIEVVKVKKSAGGSAGGSAGG [r7_968_TrROS_Hall]    2.44 kcal/mol
2) SAGNIRIDVHVPPDGYYMIKIRFPGNGREANIMLPPNDPDKFKELAEEIAENLFEEGFPIEVDIEPIPPSAG [r5_815_TrROS]    2.34 kcal/mol
3) SAGGSAGGSMKVVVTAKLPGGEVLQKTIPVDESVLKKMSKEEVIELLKKEGLPENVEIKFEPKSAGGSAGGS [r12_742_JUSTAS]    2.17 kcal/mol
4) SAGGSAGGSAGGRIRLRTELLVRREDGSLSRFRETAVFEVEARPRPVPAPRAYRDANGRLVSAGGSAGGSAG [r3_252_TrMRF]    0.264 kcal/mol
5) SAGGKLTLEEIKALLKEGKEYSLEELLKKIAELLNLTVELEEEPEKVTVVKVDPETGEIVEEKEIDLSAGGS [r8_105_TrROS_Hall]    2.44 kcal/mol
6) SAGGSAGGSEVEITVTETEDTVTVTIRFKDTGKTVTITVPKDMTPEEVLARAKELLKKLGIEPSAGGSAGGS [r12_764_TrROS_Hall]    3.75 kcal/mol

Fill in reported folding stability dG unfold for this entry: SAGGSAGGSMEKRKLEIEIHLPASEATEEEMEELAEEYAKKNPEADEVTFKFTVEESDKESLESAGGSAGGS [r20_86_JUSTAS]
-0.141 kcal/mol

---

Entries annotated with measured folding stability dG unfold
# testSummary: folding stability dG unfold from chymotrypsin proteolysis; higher = more stable
# do not omit the unit; it follows the number

Fill in reported folding stability dG unfold for this entry: SMKPGETVTLEVVIRVKKENMTLEEIAEEVANAIKALLPPGAKITIEVVDIEYDEETDEVYVKLKITIENSA [r9_706_TrROS_Hall]
2.64 kcal/mol

---

Entries annotated with measured folding stability dG unfold
# testSummary: folding stability dG unfold (combined trypsin and chymotrypsin); higher = more stable

Solved entries:
1. SAGGSAGGSAGGSTKTYNAEIDNPNGPKITIPIEYRNEDGESDFEEKAKKFAEEYAKKYSAGGSAGGSAGGS [r4_168_TrMRF]    0.547 kcal/mol
2. TIKELAKKLGGPITVETEQYPIENPDGNPYYITDIEVQVNPNDGSLRINYEVYNPGNGKKQEEEDTIPLDDS [r1_448_TrROS]    < -1 kcal/mol
3. SAGGGPLSPGSVPVEEEVTEVVEDPATGTVTTRSRVRYPDGVEVEVTTTTPAPGLPEVSTTEVTVRPASAGG [r13_894_JUSTAS]    0.929 kcal/mol
4. SAGGSAGGSAGRRRVFFTPDGTLIVVDELPDFVRVTRYRITPGFPRIEPVDTRVLPPGALSAGGSAGGSAGG [r11_844_TrMRF]    2.25 kcal/mol
5. SAGGSAGGSAGWYFPIDELQKEHPNMSPETIADFFQKDGYKIEVEPVGPEPWVKIEPPEKSAGGSAGGSAGG [r11_707_TrROS]    0.242 kcal/mol
6. SAGMFVKIKFKTADKTVEELVKKIKEETGIPENAKITVIAEKSEDEGFVVIIEFDEEEVRDKIKEIVGSAGG [r19_215_TrMRF]    1.45 kcal/mol
7. SMKIVKIEIEKIEIYSDEEFAKKTGIKPEAIYKNGKKKKVIKIPVKITLYDEKKGEKKEFEAEITIVIDVSA [r9_382_TrMRF]    2.2 kcal/mol
8. SAGNVVETEEKPVESPLPRKATLTTLTSPTPGVTFRVFTSPENVTTVEVETDGRTETLEPAEAEALLASSAG [r5_157_JUSTAS]    < -1 kcal/mol

Fill in reported folding stability dG unfold for this entry: SAGGSAGGSAGMAEKLPSLSLFYLPETGDLVLIREETYVDPNDPDKSIVKQEIYVLPPEYSAGGSAGGSAGG [r17_241_TrMRF]
1.51 kcal/mol

Fill in reported folding stability dG unfold for this entry: SAGGSMVRVTIEDKDGKEHWIMIPPGMDPNDVKQQIKKFLEDNGWKVKDVEVETYPPGWAMIRVRVSAGGSA [r2_148_TrROS]
2.2 kcal/mol

Fill in reported folding stability dG unfold for this entry: SAGGSAGGSAGGSPKTILLEVNGRLVLVTVKDGKVEIRDLENPNKTYTFPPGAKILIVDSAGGSAGGSAGGS [r4_321_TrROS_Hall]
1.84 kcal/mol

Fill in reported folding stability dG unfold for this entry: SAGGSAGGSAGGGKEISLDELIDIAIELGYPGTIEDLLADPNIKIYPNPYDDKPVILIPDSAGGSAGGSAGG [r7_180_TrMRF]
1.25 kcal/mol

Fill in reported folding stability dG unfold for this entry: SAGGGTYIEIKVTYSDGTTETFTVPAKPEDIETVVKEIEDKLKELGGTITSIKIENGKITIEATIPDSAGGS [r16_662_TrMRF]
3.06 kcal/mol

Fill in reported folding stability dG unfold for this entry: SAGGSAGGSAGKKTLYVIKIELSDEQLKEAKKEGKPLKLKAEIVEVKPVKVEVKKEYKKESAGGSAGGSAGG [r11_26_TrROS_Hall]
-0.167 kcal/mol

---

# testSummary: folding stability dG unfold from trypsin proteolysis; higher = more stable
Record Yes whenever folding stability dG unfold is at 3 kcal/mol or higher; record No when lower.

Previously resolved entries follow.
1) SMSREELREYARAHPDRPLALILPGKKTLLLFDPATGAEREEDITSVEEAKERLAAQPVAVVEVVSAELLSA [r9_775_JUSTAS]    No
2) MVELVEVTRENGLVTVTVANPIPGATLTVEVRDPEGKVLASSTSPSPTVTVTAEIPPDEDFSVTVTQTPPAS [r1_382_JUSTAS]    Yes
3) SAGGDPNTARVVVLTGHPDVITPEQIRTLLENLGADEIKSVEVFTTPTSRVVRFVDSNGAPTVIFVPSAGGS [r8_86_TrMRF]    No

Is folding stability dG unfold for SVDPAKEKVVLRFTVTFPVPPELGPITADELAALVREILEAFGYEIVSVTVTVEGDRVTVTVEAVFDKRGSA [r9_1134_TrMRF] at or above 3 kcal/mol?
Yes

Is folding stability dG unfold for SDPDAKLLPATFTFRDPLTGEEVTVEVTVYETSGYLLAPAKVTVTLPTKPRTLTATLLVDENGNVHLFVSSA [r9_1015_TrMRF] at or above 3 kcal/mol?
No

Is folding stability dG unfold for SAGGSAGGSAGEFEILSIETEPPNGRVEIAIRFDDWVVVINFDNPNEPELYPVRPDDGIFSAGGSAGGSAGG [r17_145_TrROS] at or above 3 kcal/mol?
No

Is folding stability dG unfold for SAGGSAGGSAGGLKIQRFPDGNWYRIYLPNGNEHHIPMDEPIKVPNAKEPVKIEPVPPDDSAGGSAGGSAGG [r7_968_TrROS] at or above 3 kcal/mol?
No

---

Entries annotated with measured folding stability dG unfold
# testSummary: folding stability dG unfold from trypsin proteolysis; higher = more stable

Solved entries:
1) SAGGSALADRIAELARELGFEPVEIRYDPETGEVYALVRKPGGLLLRMRVEVDDDELHIEIEPLTDSAGGSA [r15_561_TrMRF]    4.34 kcal/mol
2) SAGGSAGGSAGKKKLTVTVKKKKPAKEKKKVKTKVVKEKKLELSEEELKKLLDELKELLESAGGSAGGSAGG [r11_418_TrROS_Hall]    0.624 kcal/mol
3) SAGGKKVVIVFDVENLTPEQIRELVRKAIESLPDPENVVIVANVTSPATVEELAELAKEHPEVKFVVGSAGG [r13_718_TrMRF]    3.79 kcal/mol
4) SAGEKEYVNLPLVVKLPPGVPASLILDAAVKHGAKEVTIVEEPTPDGGMVLHINLVLPKEALPKLLESLSAG [r5_376_TrMRF]    4.39 kcal/mol
5) SALLEPLLLEVYIPATGEVITVPAKSLEEAEAIIAEVRADPTVASVRITLPDGTVVEVSFNVSPAAYLKSAG [r14_747_JUSTAS]    0.42 kcal/mol

Fill in reported folding stability dG unfold for this entry: SAGGSAMKPGEPVEFNIMIKIRDPNGKPVGEIDIKVEYPKGQSESQMFDRARNEINNLAPEGHLEISAGGSA [r15_310_TrROS]
0.0892 kcal/mol

Fill in reported folding stability dG unfold for this entry: PFPIYVKIERDGKPVREEPIPMDELQEMPVEEVIEYARELLRQFPGRKYKVEVYFPGGPREFEIKDPEDIKS [r1_477_TrROS]
0.496 kcal/mol
